Record form. Attribute: melting point. Fill in for each entry.

INSERT INTO results (compound, recorded_result) VALUES
  ('CN(CC(=O)O)c1ccccc1[N+](=O)[O-]', '69 to 71 °C'),
  ('COc1ccc(OCC(=O)NN)cc1', '142 to 144 °C'),
  ('Nc1cc2c(cc1Cl)NC(=O)CO2', '227 to 229 °C'),
  ('CNC1(C(=O)O)CCc2ccccc21 (centres undefined)', '279 to 281 °C'),
  ('O=C(CCCc1ccccc1)Cc1ccc(Cl)cc1', '31 to 33 °C');

Please state melting point for every compound in the list that follows.
1. O=C1COc2cc(S)c(Cl)cc2N1
2. O=C(Cc1cccc(F)c1)c1ccc(Cl)c(Cl)c1
3. O=C(CN1CCNCC1)Nc1ccc(F)cc1
4. Cc1cc(C(=O)C(C)Cl)c(C)n1-c1ccc(OC(F)F)cc1 (centres undefined)
5. COC(=O)N1CCc2n[nH]c(=O)cc2C1
6. COc1ccc(NS(=O)(=O)c2cccc(N)c2)cc1
7. O=C(O)CC#Cc1ccccc1
8. O=C(Nc1ccn[nH]1)OCc1ccccc1

*A*
["256 to 258 °C", "121 to 123 °C", "72 to 81 °C", "92 to 96 °C", "189 to 191 °C", "109 to 111 °C", "71 to 73 °C", "194 to 196 °C"]

====

experimental_endpoint: melting point

Field: example entries. Status: answers known.
INSERT INTO assay_data (molecule, recorded_result) VALUES
  ('O=C(O)c1ccnc(NC2CCCC2)c1', '296 to 298 °C'),
  ('O=S(=O)(c1ccc(N2CCNCC2)nc1)N1CCOCC1', '184 to 186 °C'),
  ('CCOc1cc(C=CC(=O)O)ccc1OCCOc1ccc(F)cc1', '105 to 107 °C');

For every record below, what is its melting point?
1. Cc1ccc(-c2nc(N)sc2CC(=O)O)cc1C
2. O=C(NC=C(Cl)Cl)c1ccc(F)cc1

*A*
1. 265 to 267 °C
2. 69 to 71 °C

Look at each molecule and report its melting point.
1. O=C(O)c1cccc(NC(=O)C2Cc3ccccc3O2)c1 (stereo not drawn)
2. Cn1ccnc(NN)c1=O
3. N=c1[nH]cnn1-c1ccccc1
4. CCS(=O)(=O)c1cccc(F)c1N
5. COc1ccc2cncnc2c1
6. O=C1NC(=O)C(c2cc(Br)ccc2F)N1 (stereo not drawn)
7. CC(=O)CCCOc1ccccc1C(N)=O

*A*
252 to 254 °C
131 to 133 °C
148 to 150 °C
91 to 93 °C
83 to 85 °C
194 to 196 °C
80 to 82 °C

Please supply melting point for each of the following items, keeping them in order.
1. NC(CNS(=O)(=O)c1ccc(F)cc1)=NO
2. CC1CC(O)CC(C)N1 (stereo not drawn)
3. CS(=O)(=O)CCOc1ccc(Br)cc1

*A*
1. 148 to 150 °C
2. 109 to 111 °C
3. 130 to 132 °C

====

experimental_endpoint: melting point

Consider the worked cases shown below.
INSERT INTO measurements (compound, recorded_result) VALUES
  ('O=C(O)c1cc(N2CCOCC2)ccc1[N+](=O)[O-]', '188 to 192 °C'),
  ('Cn1cc(C(=O)CBr)cn1', '116 to 118 °C'),
  ('Cc1ccc2sc(-c3ccc(CCl)cc3)nc2c1', '149 to 151 °C'),
  ('CC(C)(C)OC(=O)N1CC(O)(c2ccc(F)c(F)c2)C1', '69 to 71 °C');

For every item below, please supply its melting point.
1. Cc1cc(Br)ccc1CO
2. OCc1ccc(Cc2ccccc2)cc1
3. Cc1cc(C)nc(-n2cc(C(=O)O)c(C)n2)n1
4. N#CCOc1ccc(CO)cc1

*A*
74 to 76 °C
37 to 39 °C
287 to 289 °C
98 to 100 °C

// for each compound in input: emit melting point
1. CC(C)(CN)S(=O)(=O)c1ccc(Br)cc1
2. COc1cc(N)ncc1Br
3. O=C1OC(C(=O)O)Cc2ccccc21 (stereo not drawn)

*A*
74 to 76 °C
136 to 138 °C
151 to 153 °C

Quick batch: melting point for everything below.
1. CC(=O)c1ccccc1NS(=O)(=O)c1ccc(C)cc1
2. COc1ccc(O)c(C(C)(C)C)c1

*A*
["148 to 150 °C", "61 to 63 °C"]

Origin of the recorded values: a melting point compilation (Tetko et al.)
